The measurements presented in this section are drawn from patent US12194051B2.

This listing pairs compounds with measured pIC50.
measured_on: UniProt:P29275
Sequence (P29275 1-332): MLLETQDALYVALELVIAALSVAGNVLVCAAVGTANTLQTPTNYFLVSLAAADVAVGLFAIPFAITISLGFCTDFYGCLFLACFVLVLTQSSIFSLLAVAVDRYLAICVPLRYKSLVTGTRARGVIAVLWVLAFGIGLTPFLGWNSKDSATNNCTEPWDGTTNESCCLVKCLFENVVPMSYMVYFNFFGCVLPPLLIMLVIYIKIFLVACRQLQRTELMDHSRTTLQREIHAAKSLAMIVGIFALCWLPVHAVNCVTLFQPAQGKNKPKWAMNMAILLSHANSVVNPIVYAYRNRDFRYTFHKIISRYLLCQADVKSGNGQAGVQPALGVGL
experiment_notes: Inhibition of human A2B receptor in recombinant HEK293 cells, cAMP quantification (HTRF)
applied_conditions: read-out: A2B (Category)
pIC50: −log10 of the molar value.

Please review the entries below; each comes with its answer.
{"entry_smiles": "O=C(c1cc2c(cn1)c(Nc1ccncn1)nn2CC(F)(F)F)N1CCCOCC1", "reported_endpoint": "pIC50", "recorded_result": "> 6.00"}
{"entry_smiles": "CC(C)C1(O)CCN(C(=O)c2cc3c(cn2)c(Nc2cc(F)ccn2)nn3CC(F)(F)F)CC1", "reported_endpoint": "pIC50", "recorded_result": "> 7.00"}
{"entry_smiles": "O=C(c1cc2c(cn1)c(Nc1cccc(Cl)c1)nn2CC(F)(F)F)N1CCCOCC1", "reported_endpoint": "pIC50", "recorded_result": "> 6.00"}

stdin: Quick one: pIC50 for O=C(c1cc2c(cn1)c(Nc1cccc(F)c1)nn2CC(F)(F)F)N1CCC(O)CC1 ?
stdout: > 7.00

stdin: Quick one: pIC50 for O=C(c1cc2c(cn1)c(Nc1cc(F)ccn1)nn2CC(F)(F)F)N1CCC[C@H](O)C1 ?
stdout: > 7.00

stdin: Quick one: pIC50 for CC1(O)CCN(C(=O)c2cc3c(cn2)c(Nc2ccc(F)cc2)nn3CC(F)(F)F)CC1 ?
stdout: > 6.00

###

This listing pairs molecules with measured IC50.
measured_on: UniProt:P29275
experiment_notes: Inhibition of human A2B receptor in recombinant HEK293 cells, cAMP quantification (HTRF)
applied_conditions: read-out: A2B (Category)

Please review the entries below; each comes with its answer.
{"entry_smiles": "O=C(c1cc2c(cn1)c(Nc1ccccn1)nn2CC(F)(F)F)N1CCCOCC1", "recorded_result": "< 100 nM"}
{"entry_smiles": "CCC1(O)CCN(C(=O)c2cc3c(cn2)c(Nc2cc(F)ccn2)nn3CC(F)(F)F)CC1", "recorded_result": "< 100 nM"}
{"entry_smiles": "CC(C)(O)C[C@H]1CCCN1C(=O)c1cc2c(cn1)c(Nc1ccc(F)cn1)nn2CC(F)(F)F", "recorded_result": "< 1000 nM"}

stdin: Quick one: IC50 for O=C(c1cc2c(cn1)c(Nc1ccc(F)c(F)n1)nn2CC(F)(F)F)N1CCCOCC1 ?
stdout: < 100 nM

stdin: Quick one: IC50 for O=C(c1cc2c(cn1)c(Nc1ccccn1)nn2CC(F)(F)F)N1CC2CCC(C1)O2 ?
stdout: < 100 nM
